# tested-target: unphosphorylated-BTK kinase domain (UP-BTK), GST-tagged human BTK (389-659aa) (Homo sapiens (Human), UniProt Q06187)
# Sequence (Q06187 389-659): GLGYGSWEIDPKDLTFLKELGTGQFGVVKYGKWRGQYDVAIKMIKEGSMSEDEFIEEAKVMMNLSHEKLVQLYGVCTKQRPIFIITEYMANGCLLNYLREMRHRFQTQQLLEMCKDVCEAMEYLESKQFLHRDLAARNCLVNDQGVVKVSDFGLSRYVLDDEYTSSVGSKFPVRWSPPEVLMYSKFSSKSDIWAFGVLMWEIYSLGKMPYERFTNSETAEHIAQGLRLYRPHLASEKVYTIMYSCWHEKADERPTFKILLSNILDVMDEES
# protocol-summary: BTK kinase Lanthascreen binding assay
# test-settings: unphosphorylated-BTK kinase domain, 50 nM Tracer 236, 60 minutes; pIC50 = negative log of the IC50 in molar
Please use met for BTK_I_binding pIC50 under 7 and not met for everything else, ties included.

Qu. Does C=CC(=O)N1C[C@H](NC(=O)c2sc3nccc4c3c2NC(=O)N4c2ccc(Oc3ccccc3)cc2)[C@@H](F)C1 have BTK_I_binding pIC50 strictly under 7?
Ans. not met

Qu. Is BTK_I_binding pIC50 strictly under 7 for the entry Cc1ccccc1N1C(=O)Nc2c(C(=O)N[C@@H]3CCCN(C)C3)sc3nccc1c23 ?
Ans. met

----------
Below is a list of entries, each paired with its recorded BTK_I_binding pIC50 value.
# tested-target: unphosphorylated-BTK kinase domain (UP-BTK), GST-tagged human BTK (389-659aa) (Homo sapiens (Human), UniProt Q06187)
# protocol-summary: BTK kinase Lanthascreen binding assay
# test-settings: pIC50 = negative log of the IC50 in molar; 60 minutes incubation, 50 nM Tracer 236
I'd appreciate a reply containing only the number, no unit.

> print(dat)
                                   molecule        readout.label  value.reported
1  C=CC(=O)N1CC[C@@H](NC(=O)c2sc3nccc4c3c2NC(=O)N4c2ccc(S(F)(F)(F)(F)F)cc2C)C1  BTK_I_binding pIC50             6.4

Qu. Give the measured BTK_I_binding pIC50 of Cc1cc(Oc2ccccc2)ccc1N1C(=O)Nc2c(C(=O)N[C@@H]3CCCN(C(=O)/C(C#N)=C/C4(N)CC4)C3)sc3nccc1c23 .
Ans. 6.8

Qu. What does the data say about its BTK_I_binding pIC50? Entry: C=CC(=O)N1CC(F)C[C@@H](NC(=O)c2sc3nccc4c3c2NC(=O)N4c2ccc(Oc3ccccc3)cc2C)C1 (stereo in doubt)
Ans. 7.9

Qu. Sample Cc1cc(Oc2ccccc2)ccc1N1C(=O)Nc2c(C(=O)N[C@@H]3CCCN(C(=O)/C=C/C(C)C)C3)sc3nccc1c23 — what was its BTK_I_binding pIC50?
Ans. 6.5

----------
# tested-target: unphosphorylated-BTK kinase domain (UP-BTK), GST-tagged human BTK (389-659aa) (Homo sapiens (Human), UniProt Q06187)
# protocol-summary: BTK kinase Lanthascreen binding assay
# test-settings: pIC50 = negative log of the IC50 in molar; 60 minutes incubation, 50 nM Tracer 236
readout-label: BTK_I_binding pIC50

# count of solved cases: 3
> print(dat)
                                   compound        readout.label  value.reported
1  N#C/C(=C\C1CC1)C(=O)N1CCC[C@@H](NC(=O)c2sc3nccc4c3c2NC(=O)N4c2ccc(Oc3ccccc3)cc2)C1 [Example 47]  BTK_I_binding pIC50             8.0
2  C=CC(=O)N1CCC[C@@H](NC(=O)c2sc3nccc4c3c2NC(=O)N4c2ccc(Oc3cccc4ccoc34)cc2C)C1 [Example 16]  BTK_I_binding pIC50             7.3
3  Cc1cc(Oc2ccccc2)ccc1N1C(=O)Nc2c(C(=O)NC3CN(C(C)C)C3)sc3nccc1c23 [Example 273]  BTK_I_binding pIC50             6.3

Qu. Value lookup for BTK_I_binding pIC50; key = Cc1cc(Oc2ccccc2)ccc1N1C(=O)Nc2c(C(=O)N[C@H]3CCOC3)sc3nccc1c23 [Example 90]
Ans. 7.5

Qu. BTK_I_binding pIC50 lookup needed for Cc1c(N2C(=O)Nc3c(C(=O)N[C@@H]4CCCN(C)C4)sc4nccc2c34)ccc(Oc2ccccc2)c1F [Example 59] , thanks.
Ans. 7.3

Qu. Which BTK_I_binding pIC50 reading was recorded for the compound COCCC(=O)N1C[C@@H](F)[C@@H](NC(=O)c2sc3nccc4c3c2NC(=O)N4c2ccc(Oc3ccccc3)cc2C)C1 [Example 94] ?
Ans. 7.6

Qu. Which BTK_I_binding pIC50 value is on record for Cc1cc(Oc2ccccc2)ccc1N1C(=O)Nc2c(C(=O)N[C@@H]3CCCN(C(=O)/C(C#N)=C\C(C)(C)N(C)C)C3)sc3nccc1c23 [Example 134] ?
Ans. 7.1

Qu. Which BTK_I_binding pIC50 reading was recorded for the compound C=C(C(=O)N1CCC[C@@H](NC(=O)c2sc3nccc4c3c2NC(=O)N4c2ccc(Oc3ccccc3)cc2C)C1)C(F)(F)F [Example 144] ?
Ans. 7.5

Qu. Return reported BTK_I_binding pIC50; argument: C=CC(=O)N1CCC[C@@H](NC(=O)c2sc3nccc4c3c2NC(=O)N4c2ccc(Oc3ccccc3)cc2Cl)C1 [Example 15]
Ans. 7.6

Qu. Fill in: BTK_I_binding pIC50 of Cc1cc(Oc2ccccc2C(F)(F)F)ccc1N1C(=O)Nc2c(C(=O)N[C@@H]3CCCN(C)C3)sc3nccc1c23 [Example 242] is ___
Ans. 6.7

Qu. What measured BTK_I_binding pIC50 goes with Cc1cc(Oc2ccccc2)ccc1N1C(=O)Nc2c(C(=O)NC[C@@H]3CCCN3C)sc3nccc1c23 [Example 265] ?
Ans. 6.4

Qu. Would you kindly share the measured BTK_I_binding pIC50 for CCc1ccccc1Oc1ccc(N2C(=O)Nc3c(C(=O)N[C@@H]4CCCN(C)C4)sc4nccc2c34)c(C)c1 [Example 170] ?
Ans. 7.0

Qu. Consider the compound shown here: C=CC(=O)N1C[C@H](NC(=O)c2sc3nccc4c3c2NC(=O)N4c2ccc(Oc3ccccc3)cc2C)[C@@H](OC)C1 [Example 54] What is its recorded BTK_I_binding pIC50?
Ans. 7.3

Qu. What does the record list as BTK_I_binding pIC50 for Cc1cc(Oc2ccccc2)ccc1N1C(=O)Nc2c(C(=O)N[C@H]3CCOC3)sc3nccc1c23 (single isomer, unassigned) [Example 68] ?
Ans. 7.7

Where these numbers come from: patent US10800792B2
